The values you see were collected from ChEMBL document CHEMBL1201862.

system: SN12C; test: NCI tumour cell line growth inhibition, 48 h
Activity calls are given as the source filed them. Cut-off read from the data, not from the text of the source: active = GI50 up to about 1.1 µM and inactive = higher.
Choose the fitting class; nothing outside active, inactive is accepted.

Use these answered entries as a reference point.
CC(C)OP(=O)(OC(C)C)c1ccc2c(c1)OCCOCCOCCOCCO2    inactive
O=C(/C=C/c1c(O)nc2ccccc2c1O)CC(=O)C(=O)Nc1cccc(O)c1    inactive
CC(C)(C)OC1=C(OC(C)(C)C)C(O)(c2ccc(Cl)cc2)C1=O (stereo unspecified)    inactive
CCOC(=N)CC(=O)Nc1ccc(Cl)cc1    inactive
C/C(=N/O)c1sc(-c2nc(C)c(/C(C)=N\O)s2)nc1C    inactive

Field: outcome | Entry: CCN(CC)CCc1c2c(nc3ccccc13)C(=O)c1cccnc1C2=O
active

Which outcome was entered for the molecule COc1cc2c(cc1OC)[C@@H](Nc1ccc(C#N)cc1)C1COC(=O)[C@@H]1C2c1cc(OC)c(O)c(OC)c1 (stereo partly specified) in this test?
active

* * *

system: NCI/ADR-RES; assay: NCI tumour cell line growth inhibition, 48 h
Calls of active or inactive are those of the source. No stated cut-off is given here; in the data, active = GI50 up to about 1.1 µM and inactive = higher.
Collected GI50 values appear next to each entry.

CC(C)=CCOC(=O)C(C)=[N+]=[N-]    > 100 µM (inactive)
CCc1nc2cc(F)ccc2[nH]c1=O    > 100 µM (inactive)
OCC1NC(COC2OC(CO)C(O)C(O)C2O)C(O)C(O)C1O (stereo not drawn)    > 100 µM (inactive)

Could you please provide reported GI50 for C=C1C(=O)O[C@@H]2C[C@@H]3[C@]4(CC[C@]5(C)[C@@H]([C@H](C)CC/C=C(\C)C=O)CC[C@@]35C)C[C@]4(CCC(=O)OC)[C@H]12 ? Thanks!
2.35 µM (inactive)

Find the measured GI50 of OC1C2[C@@H](O)CCCN2C[C@@H](O)[C@H]1O (stereo partly drawn) and report it.
> 100 µM (inactive)

Quick one: give measured GI50 for CC(=O)OC1CC(n2cc(F)c(=O)[nH]c2=O)OC1CO (stereo not drawn)
1.93 µM (inactive)

Write down GI50 measured for item O=C1C2=Cc3ccccc3OC2(O)Oc2ccccc21 (stereo not drawn)
> 100 µM (inactive)

Tell us which GI50 value is on record for O=C(NC(=S)Nc1ccc2c(c1)Sc1ccccc1O2)c1ccc([N+](=O)[O-])cc1
> 100 µM (inactive)

Provide one value: measured GI50 of C/C(=N\NC(=N)N)C(CN(C)C)C(c1ccccc1)c1c(O)c2ccccc2oc1=O (stereo not drawn)
> 100 µM (inactive)

Fill in GI50 for record O=C1C=C(Cl)C(=O)C(c2ccc(Cl)cc2)=C1
26.4 µM (inactive)

Answer with the recorded GI50 of CC(=O)N1OC(C)CC1Nc1ccc(Br)cc1 (stereo not drawn) only.
> 100 µM (inactive)

Look up and state reported GI50 for C[N+](C)(C)CC(=O)N/N=C\c1c(O)ccc2ccccc12
33.7 µM (inactive)

Give the reported value of GI50 for this record: O=C1c2ccccc2CC12Cc1cc3c(cc1C2=O)CCC3 (stereo not drawn)
> 100 µM (inactive)

* * *

test system: SNB-75; assay: NCI tumour cell line growth inhibition, 48 h
Calls of active or inactive are those of the source. Rule as the data show it: active = GI50 up to about 1.1 µM and inactive = higher.
reported.metric: GI50

Consider the following illustrative entries.
CC(=O)/C=C/c1ccc(C)cc1    > 100 µM (inactive)
O=C(O)CCC1CCc2cccc3occ1c23 (stereo not drawn)    > 100 µM (inactive)
CN(C(=O)C1CC1)C1C2CN3CCC(O2)C13 (stereo not drawn)    > 100 µM (inactive)

Consider the molecule CCOC(=O)c1cc(C2=C(S)N(CC(C)CC)CC2)c(C(=O)CC)[nH]1 (stereo not drawn) and give its recorded GI50.
19.7 µM (inactive)

Report measured GI50; entry is CCCCOC(=O)NC(Nc1ccc(S(N)(=O)=O)cc1)(C(F)(F)F)C(F)(F)F
> 100 µM (inactive)

Give the value of GI50 reported for the following: CCOC(=O)/C1=C(\C)N(c2ccc(C)cc2)C(=O)c2ccccc2C(=O)c2c(OC(C)=O)ccc(OC(C)=O)c21
25.8 µM (inactive)

Item NS(=O)(=O)c1cccc(NC(=S)NC(=O)Nc2ccc(Cl)c(Cl)c2)c1 : provide GI50
18.3 µM (inactive)

Give me measured GI50, please, for this molecule: CC(C)N(C(=O)C12C3C4C1C1C2C3C41C#N)C(C)C (stereo not drawn)
> 84.7 µM (inactive)

Consider the molecule COc1c(C)c2nc3ccccc3nc2c2c(O)ccnc12 and give its recorded GI50.
7.13 µM (inactive)

Look up GI50 of O=C(CCC=C(S(=O)(=O)c1ccccc1)S(=O)(=O)c1ccccc1)c1ccccc1 and report it.
3.61 µM (inactive)

Give GI50 for OC1C2[C@@H](O)CCCN2C[C@@H](O)[C@H]1O (stereo partly drawn)
> 100 µM (inactive)

For the molecule O=C1O[C@H](C(Cl)(Cl)Cl)N2CCCC12 (stereo partly drawn) , report GI50.
> 100 µM (inactive)

# return recorded GI50 for input Cc1cc2c(c(N)c1C)C(=O)c1ccccc1C2=O
12.5 µM (inactive)
